- ASSAY_NOTES: growth modulation of vineyard yeast isolate – strain RM11-1a, OD600, basal, 24 h, primary screen (AID 1177);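 also: cultures grown under basal conditions with no added stressor; test concentration not given here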
- EXPERIMENTAL_CONDITIONS: S. cerevisiae RM11-1a growth, OD600, 24 h; higher = more signal, called active from +8 up or from −8 down
Item-by-item account of z-score
Give the figure only, with no unit attached.

Request: Answer with the recorded z-score for the compound listed here: O=C1C2C=CC(C(O)c3ccc(-c4ccccc4)s3)N(Nc3ccccc3F)C2C(=O)N1c1ccccc1 (configuration not stated)
Response: 1.19

Request: Answer with the recorded z-score for the compound listed here: CC1CC/C=C\[C@H]2OC34C=CCN(CCN5CCOCC5)C(=O)[C@H]3N(CCCCCO)C(=O)[C@@H]4C2C(=O)O1 (some centres not stated)
Response: 0.0357

The measured values listed here are drawn from PubChem BioAssay.
